This section lists IC50 readings for UniProtKB Q02763.
Sequence (Q02763 23-1124, species assumed): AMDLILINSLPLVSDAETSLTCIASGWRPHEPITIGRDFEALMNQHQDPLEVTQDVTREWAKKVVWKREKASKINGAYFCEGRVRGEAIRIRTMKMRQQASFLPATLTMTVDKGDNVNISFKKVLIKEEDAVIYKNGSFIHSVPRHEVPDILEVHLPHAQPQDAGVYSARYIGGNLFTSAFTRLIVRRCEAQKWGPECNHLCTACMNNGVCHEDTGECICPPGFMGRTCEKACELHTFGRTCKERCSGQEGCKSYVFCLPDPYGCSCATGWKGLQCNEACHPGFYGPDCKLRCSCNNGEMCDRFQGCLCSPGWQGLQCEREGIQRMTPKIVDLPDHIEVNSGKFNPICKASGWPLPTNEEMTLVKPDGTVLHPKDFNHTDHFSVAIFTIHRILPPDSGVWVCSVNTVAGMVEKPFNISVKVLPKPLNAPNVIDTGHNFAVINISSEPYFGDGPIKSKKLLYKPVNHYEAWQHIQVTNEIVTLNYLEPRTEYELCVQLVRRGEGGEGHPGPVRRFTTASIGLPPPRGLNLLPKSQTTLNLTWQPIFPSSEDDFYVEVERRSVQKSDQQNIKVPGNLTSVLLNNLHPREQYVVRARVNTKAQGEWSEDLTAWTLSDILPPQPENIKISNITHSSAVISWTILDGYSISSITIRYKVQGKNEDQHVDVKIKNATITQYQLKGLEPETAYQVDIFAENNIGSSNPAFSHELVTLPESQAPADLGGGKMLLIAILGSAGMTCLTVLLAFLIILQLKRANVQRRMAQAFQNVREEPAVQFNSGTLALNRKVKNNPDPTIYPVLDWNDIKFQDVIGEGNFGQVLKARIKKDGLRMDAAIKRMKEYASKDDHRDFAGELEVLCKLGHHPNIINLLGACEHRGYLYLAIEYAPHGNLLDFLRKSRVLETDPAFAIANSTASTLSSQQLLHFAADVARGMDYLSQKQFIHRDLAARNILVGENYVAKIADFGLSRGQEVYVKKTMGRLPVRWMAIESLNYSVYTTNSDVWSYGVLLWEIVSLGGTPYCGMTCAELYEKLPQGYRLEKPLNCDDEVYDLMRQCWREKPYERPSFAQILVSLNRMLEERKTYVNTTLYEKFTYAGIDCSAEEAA

Value of measured IC50 for the entry `COc1cc(Nc2ncnc(-n3c(N)nc4ccccc43)n2)ccc1OCCn1ccnn1` : 0.9 to 5.4 µM

Value of measured IC50 for the entry `O=c1[nH]c2ccccc2n1-c1ncnc(Nc2ccc(Br)c(Cl)c2)n1` : 0.958 to 5.75 µM

Value of measured IC50 for the entry `COc1cc(Nc2ncnc(-n3c(N)nc4ccccc43)n2)cc(OC)c1OC` : 1.02 to 6.1 µM

Value of measured IC50 for the entry `O=c1[nH]c2ccccc2n1-c1ncnc(Nc2cc(C(F)(F)F)cc(C(F)(F)F)c2)n1` : 5.45 to 7.95 µM

---

Biological target: AKT (Homo sapiens, UniProt Q9Y243)
Construct: Kinases are expressed as either kinase domains or full length constructs; made in house
Sequence (Q9Y243 whole entry, the tested form may be a part): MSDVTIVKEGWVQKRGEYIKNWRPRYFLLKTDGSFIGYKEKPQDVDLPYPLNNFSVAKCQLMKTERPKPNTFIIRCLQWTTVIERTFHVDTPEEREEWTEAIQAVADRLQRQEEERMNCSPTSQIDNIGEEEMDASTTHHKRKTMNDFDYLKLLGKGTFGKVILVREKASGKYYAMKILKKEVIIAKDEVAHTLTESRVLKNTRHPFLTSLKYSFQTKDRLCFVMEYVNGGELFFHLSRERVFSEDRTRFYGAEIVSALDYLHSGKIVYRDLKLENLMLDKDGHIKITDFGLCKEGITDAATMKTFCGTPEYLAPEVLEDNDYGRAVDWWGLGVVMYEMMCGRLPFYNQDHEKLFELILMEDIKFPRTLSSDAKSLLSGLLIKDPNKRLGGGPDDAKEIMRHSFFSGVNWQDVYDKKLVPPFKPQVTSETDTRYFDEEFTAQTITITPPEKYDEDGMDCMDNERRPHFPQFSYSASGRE
Assay: Kinase inhibition assay (33P transfer), AKT
Assay type: biochemical
Settings: Table 2, class symbols A-E; read-out: AKT3-1
pIC50: −log10 of the molar value.
attribute_measured: pIC50

CN(c1cccc(Cl)c1)c1ncnc(Nc2ccc3c(cnn3C)c2)n1 [Compound 674] :: < 4.91

Value of measured pIC50 for the entry COc1cccc(Nc2ncnc(Nc3ccc4c(cnn4Cc4ccccc4)c3)n2)c1 [Compound 904] : 4.97 to 5.08

Value of measured pIC50 for the entry COc1ccc(Nc2ncnc(Nc3ccc4c(c3)C(=O)N(C)C4=O)n2)cc1OC [Compound 856] : < 4.96

Value of measured pIC50 for the entry COc1ccc(Nc2ncnc(N(C)CC(O)c3ccccc3)n2)cc1OC (centres unmarked) [Compound 868] : < 4.93

---

Biological target: Lck (Homo sapiens)
Construct: Kinases are expressed as either kinase domains or full length constructs; made in house
Sequence (P06239 whole entry, species assumed, the tested form may be a part): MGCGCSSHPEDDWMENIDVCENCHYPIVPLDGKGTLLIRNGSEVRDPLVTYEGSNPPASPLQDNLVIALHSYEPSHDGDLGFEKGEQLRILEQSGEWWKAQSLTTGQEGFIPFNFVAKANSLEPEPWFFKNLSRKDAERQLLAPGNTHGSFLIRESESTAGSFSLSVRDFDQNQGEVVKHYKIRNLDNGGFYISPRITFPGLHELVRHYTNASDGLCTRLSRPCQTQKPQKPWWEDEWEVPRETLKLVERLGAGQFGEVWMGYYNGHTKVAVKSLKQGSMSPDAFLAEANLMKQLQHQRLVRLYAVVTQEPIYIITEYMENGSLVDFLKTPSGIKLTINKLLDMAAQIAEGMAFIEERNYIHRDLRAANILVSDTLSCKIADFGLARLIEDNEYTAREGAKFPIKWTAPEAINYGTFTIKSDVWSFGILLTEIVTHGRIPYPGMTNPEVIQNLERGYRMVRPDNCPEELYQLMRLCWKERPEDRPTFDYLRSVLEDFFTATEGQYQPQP
Experiment: Kinase inhibition assay (33P transfer), Lck
Format: biochemical
Details: Table 3, class symbols; read-out: Lck-1
pIC50: −log10 of the molar value.
attribute_measured: pIC50

// below: answered molecules
COc1ccc(Nc2ncnc(N(C)C3CCCCC3)n2)cc1OC :: > 5.93
COc1ccc(Nc2ncnc(N(C)c3ccc(C(=O)O)cc3)n2)cc1OC :: < 4.93
CCN(c1cccc(Cl)c1)c1ncnc(Nc2cc(OC)cc(OC)c2)n1 :: 5.21 to 5.98

Value of measured pIC50 for the entry `c1ccc(Nc2ncccc2-c2ncnc(Nc3cccc(Cn4ccnn4)c3)n2)cc1` : < 4.97

Value of measured pIC50 for the entry `COc1ccc(Nc2ncnc(NCc3ccc(C)c(Cl)c3)n2)cc1OC` : < 4.93

Value of measured pIC50 for the entry `COc1ccc(CNc2nc3ccccc3n2-c2ncnc(Nc3cccc(C(=O)O)c3)n2)cc1` : < 5.02

Value of measured pIC50 for the entry COc1ccc(Nc2ncnc(N(C)CC(O)c3ccccc3)n2)cc1OC (stereo not drawn) : < 4.93

Value of measured pIC50 for the entry `COc1ccc(Nc2ncnc(Nc3cccc(C#N)c3)n2)cc1OC` : < 4.89

Value of measured pIC50 for the entry `COc1cc(Nc2ncnc(-c3cccnc3Nc3cc(Cl)cc(Cl)c3)n2)cc(OC)c1OC` : < 5.05

---

Molecular target: IGFR-1 (Homo sapiens, UniProt P08069)
Construct: Kinases are expressed as either kinase domains or full length constructs; made in house
Experiment: Kinase inhibition assay, IGFR-1 (Table 2)
Type: biochemical
Conditions: Table 2, kinase inhibition class
pIC50: −log10 of the molar value.
Catalogue of pIC50 values

// below: answered molecules
Cc1ccc2c(c1)CCCN2c1ncnc(Nc2cc[nH]n2)n1 [Compound 766] :: 5.11 to 5.89
CCc1ccc(Nc2nc3ccccc3n2-c2ncnc(Nc3cc(OC)c(OC)c(OC)c3)n2)cc1 [Compound 1048] :: < 5.04
COc1ccc(Nc2ncnc(-n3c(N)nc4ccccc43)n2)cc1 [Compound 656] :: > 5.92

Value of measured pIC50 for the entry COc1cc(Nc2ncnc(Nc3cc(-c4ccc(Cl)c(Cl)c4)n[nH]3)n2)cc(OC)c1OC [Compound 589] : > 6.09

Value of measured pIC50 for the entry COc1cc(Nc2ncnc(-n3c(NCc4ccc(O)cc4)nc4ccccc43)n2)cc(OC)c1OC [Compound 561] : < 5.05

Value of measured pIC50 for the entry CN(c1cccc(Cl)c1)c1ncnc(-n2c(N)nc3ccccc32)n1 [Compound 664] : 5.17 to 5.94

Value of measured pIC50 for the entry Brc1cccc(Nc2ncnc(Nc3ccc4c(cnn4Cc4ccccc4)c3)n2)c1 [Compound 554] : < 5.02

Value of measured pIC50 for the entry COc1ccc(Cl)cc1Nc1ncnc(Nc2cc(OC)c(OC)c(OC)c2)n1 [Compound 627] : > 6.02

Value of measured pIC50 for the entry CN(c1cccc(Cl)c1)c1ncnc(NCCN2CCCCC2)n1 [Compound 740] : < 4.89

---

Target: AKT (Homo sapiens)
Construct: Kinases are expressed as either kinase domains or full length constructs; made in house
Assay: Kinase inhibition assay (33P transfer), AKT
Assay type: biochemical
Conditions: Table 2, kinase inhibition class; read-out: AKT3-1
pIC50: −log10 of the molar value.
attribute_measured: pIC50

COc1ccc(Nc2ncnc(Nc3ccc(Br)cc3F)n2)cc1OC :: 5.08 to 5.24
COc1ccccc1Nc1ncnc(Nc2cc(OC)c(OC)c(OC)c2)n1 :: < 4.93
CC(C)(C)OC(=O)NCc1cccc(Nc2ncnc(Nc3cc(C(C)(C)C)n[nH]3)n2)c1 :: < 4.99
COc1ccc(Nc2ncnc(Nc3ccc4[nH]ccc4c3)n2)cc1OC :: 5.18 to 5.96
COc1cc(Nc2ncnc(N(Cc3ccccc3)c3nc4ccccc4[nH]3)n2)cc(OC)c1OC :: < 5.03
COc1cc(Nc2ncnc(Nc3cccc4ccccc34)n2)cc(OCCN2CCOCC2)c1OC :: < 5.05
COC(=O)Cc1cccc(Nc2ncnc(Nc3ccc(C)c(O)c3)n2)c1 :: < 4.91
COCCOc1ccc(Nc2ncnc(-n3c(N)nc4ccccc43)n2)cc1OC :: < 4.96

// next entry
# pIC50 measured on AKT (Homo sapiens) for item `C=CCNc1ncccc1-c1ncnc(Nc2cc(OC)c(OC)c(OC)c2)n1` = < 4.94

---

Catalogue of IC50 values
Molecular target: Itk (Homo sapiens)
Construct: Kinases are expressed as either kinase domains or full length constructs; made in house
Sequence (Q08881 whole entry, species assumed, the tested form may be a part): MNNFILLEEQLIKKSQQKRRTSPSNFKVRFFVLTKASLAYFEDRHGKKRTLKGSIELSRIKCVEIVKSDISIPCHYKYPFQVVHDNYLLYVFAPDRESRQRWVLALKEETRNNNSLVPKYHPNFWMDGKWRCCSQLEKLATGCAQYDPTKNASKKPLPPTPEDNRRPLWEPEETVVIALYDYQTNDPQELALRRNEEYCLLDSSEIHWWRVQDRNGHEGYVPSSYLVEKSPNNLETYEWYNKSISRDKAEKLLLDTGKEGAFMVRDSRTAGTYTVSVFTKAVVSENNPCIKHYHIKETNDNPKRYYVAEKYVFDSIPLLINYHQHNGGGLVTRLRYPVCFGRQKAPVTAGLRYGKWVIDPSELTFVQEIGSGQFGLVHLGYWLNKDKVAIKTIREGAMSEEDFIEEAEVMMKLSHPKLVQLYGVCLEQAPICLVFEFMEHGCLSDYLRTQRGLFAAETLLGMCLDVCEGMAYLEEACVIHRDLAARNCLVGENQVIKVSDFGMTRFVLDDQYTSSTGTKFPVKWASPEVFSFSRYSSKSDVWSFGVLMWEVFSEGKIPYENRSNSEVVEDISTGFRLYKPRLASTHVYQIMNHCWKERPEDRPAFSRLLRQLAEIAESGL
Assay: Kinase inhibition assay (33P transfer), Itk
Type: biochemical
Details: Table 3; read-out: Itk-1

// below: answered compounds
FC(F)C(F)(F)Oc1cccc(Nc2ncnc(-c3ccnc(N4CCCCC4)c3)n2)c1 [Compound 346] :: > 10 µM
COc1cc(Nc2ncnc(-c3ccc(N4CCOCC4)nc3)n2)cc(OC)c1OC [Compound 434] :: > 10.6 µM

Value of measured IC50 for the entry COc1cc(Nc2ncnc(Nc3ccc(NCc4ccccc4)cc3)n2)cc(OC)c1OC [Compound 93] : > 9.81 µM

Value of measured IC50 for the entry CC(=O)NS(=O)(=O)c1ccc(Nc2ncnc(-n3c(=O)[nH]c4ccccc43)n2)cc1 [Compound 452] : > 10.6 µM

Value of measured IC50 for the entry N#Cc1ccc(Nc2ncnc(-c3cccs3)n2)cc1 [Compound 356] : > 16.1 µM

Value of measured IC50 for the entry COc1cc(Nc2ncnc(N3CCCc4ccccc43)n2)cc(OC)c1OC [Compound 609] : > 11.4 µM

Value of measured IC50 for the entry COc1cc(Nc2ncnc(-n3c(NCC(C)C)nc4ccccc43)n2)cc(OC)c1OC [Compound 407] : > 10 µM

Value of measured IC50 for the entry COc1cc(Nc2ncnc(-n3c(Nc4ccc(C(C)C)cc4)nc4ccccc43)n2)cc(OC)c1OC [Compound 388] : > 8.8 µM

---

Target: c-Met (Homo sapiens)
Construct: Kinases are expressed as either kinase domains or full length constructs; made in house
Sequence (P08581 25-1390): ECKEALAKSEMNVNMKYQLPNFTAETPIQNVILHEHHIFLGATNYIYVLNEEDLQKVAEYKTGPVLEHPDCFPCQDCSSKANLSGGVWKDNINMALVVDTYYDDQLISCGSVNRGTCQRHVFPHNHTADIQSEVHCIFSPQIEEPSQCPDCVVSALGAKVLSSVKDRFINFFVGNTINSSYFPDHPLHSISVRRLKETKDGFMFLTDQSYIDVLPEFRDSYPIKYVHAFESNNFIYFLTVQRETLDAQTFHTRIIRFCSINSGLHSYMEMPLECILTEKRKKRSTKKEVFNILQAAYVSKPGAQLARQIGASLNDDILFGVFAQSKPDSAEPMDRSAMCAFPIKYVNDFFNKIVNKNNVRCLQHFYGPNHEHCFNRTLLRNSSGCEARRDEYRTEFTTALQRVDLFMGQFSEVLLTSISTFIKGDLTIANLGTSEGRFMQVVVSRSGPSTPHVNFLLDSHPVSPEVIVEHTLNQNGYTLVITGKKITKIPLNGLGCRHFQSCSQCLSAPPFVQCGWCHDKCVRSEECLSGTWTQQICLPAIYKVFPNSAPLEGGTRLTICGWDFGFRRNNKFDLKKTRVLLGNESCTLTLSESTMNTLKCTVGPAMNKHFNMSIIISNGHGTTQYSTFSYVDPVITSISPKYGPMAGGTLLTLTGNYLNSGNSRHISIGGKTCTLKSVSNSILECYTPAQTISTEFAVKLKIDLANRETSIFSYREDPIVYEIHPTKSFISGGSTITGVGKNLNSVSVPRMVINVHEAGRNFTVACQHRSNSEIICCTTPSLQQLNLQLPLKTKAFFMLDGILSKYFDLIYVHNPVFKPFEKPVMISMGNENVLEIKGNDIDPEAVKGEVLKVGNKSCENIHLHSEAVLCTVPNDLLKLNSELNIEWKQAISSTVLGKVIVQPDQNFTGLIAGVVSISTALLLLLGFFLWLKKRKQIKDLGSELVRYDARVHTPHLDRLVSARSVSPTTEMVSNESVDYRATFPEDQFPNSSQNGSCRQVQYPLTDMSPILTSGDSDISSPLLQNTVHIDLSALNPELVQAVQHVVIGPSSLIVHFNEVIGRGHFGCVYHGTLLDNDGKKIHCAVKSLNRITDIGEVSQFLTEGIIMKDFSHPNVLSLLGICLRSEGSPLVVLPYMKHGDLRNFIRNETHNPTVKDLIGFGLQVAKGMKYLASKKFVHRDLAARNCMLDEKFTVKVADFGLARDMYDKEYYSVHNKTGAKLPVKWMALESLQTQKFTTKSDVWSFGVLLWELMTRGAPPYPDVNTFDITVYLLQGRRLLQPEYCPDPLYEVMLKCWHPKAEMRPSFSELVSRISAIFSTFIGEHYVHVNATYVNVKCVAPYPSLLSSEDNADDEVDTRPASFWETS
Experiment: Kinase inhibition assay (33P transfer), c-Met
Assay type: biochemical
Conditions: Table 2, kinase inhibition class; read-out: Met-1
attribute_measured: IC50

// below: answered compounds
NC(=O)c1cccc(Nc2ncnc(-n3c(N)nc4ccccc43)n2)c1 [Compound 395] :: 1.15 to 6.93 µM
CCN1CCCC1CNc1ncnc(Nc2ccc(OC)c(OC)c2)n1 (stereo not drawn) [Compound 781] :: > 12.6 µM
CN(c1cccc(Cl)c1)c1ncnc(NCCOCCO)n1 [Compound 746] :: > 13.9 µM
COc1cc(Nc2ncnc(Nc3ccc(C(=O)O)cc3)n2)cc(OC)c1OC [Compound 104] :: > 11.3 µM
CC(=O)Nc1ccc(Nc2ncnc(-n3c(N)nc4ccccc43)n2)cc1 [Compound 475] :: 6.66 to 9.71 µM
COc1cc(Nc2ncnc(-n3c(N[C@@H](C)c4ccccc4)nc4ccccc43)n2)cc(OC)c1OC [Compound 1033] :: > 9.04 µM
OCCCNc1ncnc(-c2ccccc2)n1 [Compound 971] :: > 19.5 µM
COc1ccc2c(c1)c(CCNC(C)=O)cn2-c1ncnc(Nc2cc(OC)c(OC)c(OC)c2)n1 [Compound 339] :: > 9.14 µM
COc1cc(Nc2ncnc(Nc3ccc(C)c(N)c3)n2)cc(OC)c1OC [Compound 935] :: > 11.8 µM
CN(c1cccc(Cl)c1)c1ncnc(-n2c(N)nc3ccccc32)n1 [Compound 664] :: 1.14 to 6.82 µM

# IC50 measured on c-Met (Homo sapiens) for item CN(c1cccc(Cl)c1)c1ncnc(Nc2cccc(Br)c2)n1 [Compound 707] = > 11.5 µM

# IC50 measured on c-Met (Homo sapiens) for item Nc1nc2ccccc2n1-c1ncnc(Nc2cccc(CC(=O)O)c2)n1 [Compound 544] = > 12.5 µM

# IC50 measured on c-Met (Homo sapiens) for item COc1cc(Nc2ncnc(-n3c(=O)[nH]c4ccccc43)n2)cc(OC)c1OCCN1CCOCC1 [Compound 1040] = > 9.12 µM

# IC50 measured on c-Met (Homo sapiens) for item Nc1nc2ccccc2n1-c1ncnc(Nc2ccccc2)n1 [Compound 651] = 1.32 to 7.91 µM

# IC50 measured on c-Met (Homo sapiens) for item COc1cc(Nc2ncnc(-n3c(Nc4ccc5cn[nH]c5c4)nc4ccccc43)n2)cc(OC)c1OC [Compound 406] = > 8.83 µM

# IC50 measured on c-Met (Homo sapiens) for item COc1cc(Nc2ncnc(-n3c(N)nc4ccccc43)n2)cc(OCCN2CCOCC2)c1OC [Compound 466] = 0.812 to 4.87 µM

# IC50 measured on c-Met (Homo sapiens) for item COc1cc(Nc2ncnc(Nc3cc(-c4cccc(C(F)(F)F)c4)n[nH]3)n2)cc(OC)c1OC [Compound 1000] = 4.92 to 7.18 µM

# IC50 measured on c-Met (Homo sapiens) for item COc1cc(Nc2ncnc(-c3cccnc3NCc3ccc(F)cc3)n2)cc(OC)c1OC [Compound 1088] = > 9.73 µM
